Listed binders paired with reported Kd
target: SARS-CoV-2 Wuhan-Hu-1 RBD (SARS-CoV-2 Wuhan-Hu-1, UniProt P0DTC2); assay: BLI; settings: both partners purified
Answer with the number, then the unit.

V057 (antibody, V domains shown, IgG; donor BRA15; source: recombinant monoclonal IgG, produced and purified as previously described) VH: EVQLVESGGGLVQPGRSLRLSCAASGFTFGDYAMHWVRQAPGKGLEWVSGISWNSGIIGQADSVKGRFTISRDNAKNSLYLQMNSLRVEDTALYYCAKGGGESVEVPADEKLDYWGQGTLVTVSS VL: QSVLTQPPSVSGAPGQRVTISCTGSSSNIGAGYDVHWYQQLPGTAPKLLIYGNNNRPSGVPDRFSGSKSGTSASLAITGLQAEDEADYYCQSYDSSLSGSWVFGGGTKLTVL    16.9 nM

Task: Entry under review: V042 (antibody, V domains shown, IgG; donor BRA15; source: recombinant monoclonal IgG, produced and purified as previously described) VH: QLQLQESGPGLVKPSETLSLTCTVSGGSISSSTNYWGWIRQPPGKGLEWIGSIDYSGSTYYNPSLKSRVTMSVDTSKNQFSLKLSSVTATDTAMYYCARHVIDDSRGYYPAALDHWSQGTLVTVSS VL: EIVLTQSPATLSLSPGERATLSCRASQSVNNYLAWYQQKPGQAPRLLIYDASNRATGVPARFSGSGSGTDFTLTISSLEPEDFAVYFCQQRSNWPPMYTFGQGTKLEIK . Reported Kd?
Output: 32.5 nM

Each recorded value in this set is attributed to paper PMC9270183.
